target: UniProt:P0DTD1
assay_comment: biochemical
conditions: SARS-CoV-2 PLpro enzymatic fluorescence assay; read-out: PLpro IC50
pIC50: −log10 of the molar value.
measured_property: pIC50

{"compound": "Cc1ccc(OCC2CCN2C)cc1C(=O)NC1(c2cc(NC(=O)OC(C)(C)C)cc3ccccc23)CC1 (stereo not shown)", "target": "UniProt:P0DTD1", "val": "> 7.00"}
{"compound": "Cc1ccc(OCCN(C)C)cc1C(=O)NC1(c2cccc3c2CCCC3)CC1", "target": "UniProt:P0DTD1", "val": "6.00 to 7.00"}
{"compound": "CNCCOc1ccc(C)c(C(=O)NC2(c3cccc4ccccc34)CC2)c1", "target": "UniProt:P0DTD1", "val": "> 7.00"}
{"compound": "CNCCOc1ccc(C)c(C(=O)NC2(c3cc(OC)cc4ccccc34)CC2)c1", "target": "UniProt:P0DTD1", "val": "> 7.00"}
{"compound": "Cc1ccc(OCC2(N)CC2)cc1C(=O)NC1(c2cccc3ccccc23)CC1", "target": "UniProt:P0DTD1", "val": "> 7.00"}
{"compound": "Cc1ccc(N2CCN(C)CC2)cc1C(=O)NC1(c2cccc3ccccc23)CC1", "target": "UniProt:P0DTD1", "val": "> 7.00"}
{"compound": "CNCc1cc2cc(C)c(C(=O)NC3(c4cccc5ccccc45)CC3)cc2o1", "target": "UniProt:P0DTD1", "val": "> 7.00"}
{"compound": "Cc1ccc(OC[C@@H]2CCN2C)cc1C(=O)NC1(c2cc(Br)cc3ncccc23)CC1", "target": "UniProt:P0DTD1", "val": "> 7.00"}
{"compound": "Cc1ccc(OCCN(C)C)cc1C(=O)NC1(c2ccc(F)cc2)CC1", "target": "UniProt:P0DTD1", "val": "< 5.30"}
{"compound": "CCS(=O)(=O)N1CCC([C@@H](C)NC(=O)c2cc(NC3CN(C(=O)OC(C)(C)C)C3)ccc2C)CC1", "target": "UniProt:P0DTD1", "val": "< 5.30"}
{"compound": "Cc1ccc(CC#N)cc1C(=O)NC1(c2cccc3ccccc23)CC1", "target": "UniProt:P0DTD1", "val": "6.00 to 7.00"}
{"compound": "CN(Cc1ccc2[nH]ncc2c1)C1(c2cccc3ccccc23)CC1", "target": "UniProt:P0DTD1", "val": "< 5.30"}
{"compound": "CNCCOc1ccc(C)c(C(=O)NC2(c3cccc4ccccc34)COC2)c1", "target": "UniProt:P0DTD1", "val": "> 7.00"}
{"compound": "Cc1cc(C2(NC(=O)c3cc(OCC(C)N)ccc3C)CC2)c2ccccc2c1 (stereo not shown)", "target": "UniProt:P0DTD1", "val": "> 7.00"}
{"compound": "Cc1ccc(OC[C@@H]2CCN2C)cc1C(=O)NC1(c2cc(-c3cccs3)cc3ncccc23)CC1", "target": "UniProt:P0DTD1", "val": "> 7.00"}
{"compound": "Cc1cc2c(cc1C(=O)NC1(c3cccc4ccccc34)CC1)NCCN2", "target": "UniProt:P0DTD1", "val": "6.00 to 7.00"}
{"compound": "COc1ccc(OCCN(C)C)cc1C(=O)NC1(c2cccc3ccccc23)CC1", "target": "UniProt:P0DTD1", "val": "< 5.30"}
{"compound": "CNCCOc1ccc(C)c(C(=O)N[C@@H](c2cccc3ccccc23)C(F)(F)F)c1", "target": "UniProt:P0DTD1", "val": "6.00 to 7.00"}
{"compound": "Cc1ccc(OCCN(C)C)cc1C(=O)NC1(c2cccc3[nH]c4ccccc4c23)CC1", "target": "UniProt:P0DTD1", "val": "6.00 to 7.00"}
{"compound": "COc1cc(C2(NC(=O)c3cc(OC[C@H](C)N)ccc3C)CC2)c2cccnc2c1", "target": "UniProt:P0DTD1", "val": "> 7.00"}
{"compound": "COc1ccc(C2(NC(=O)c3cc(OCCN(C)C)ccc3C)CC2)cc1", "target": "UniProt:P0DTD1", "val": "< 5.30"}
{"compound": "CNCCOc1ccc(C)c(C(=O)NC2(c3cccc4ncccc34)CC2)c1", "target": "UniProt:P0DTD1", "val": "> 7.00"}
{"compound": "Cc1ccc(N)cc1C(=O)NS(=O)(=O)c1cccc2ccccc12", "target": "UniProt:P0DTD1", "val": "< 5.30"}
{"compound": "Cc1cc2c(cc1C(=O)NC1(c3cccc4ccccc34)CC1)NC(CN)C2 (stereo not shown)", "target": "UniProt:P0DTD1", "val": "> 7.00"}
{"compound": "Cc1cc2cc(-c3ccccc3)[nH]c2cc1C(=O)NC1(c2cccc3ccccc23)CC1", "target": "UniProt:P0DTD1", "val": "< 5.30"}
{"compound": "Cc1ccc(OCC2CCN2C)cc1C(=O)NC1(c2c(C(C)C)ccc3ccccc23)CC1 (stereo not shown)", "target": "UniProt:P0DTD1", "val": "6.00 to 7.00"}
{"compound": "Cc1ccc(OCC2CCN2C)cc1C(=O)NC1(c2cc(O)cc3ccccc23)CC1 (stereo not shown)", "target": "UniProt:P0DTD1", "val": "> 7.00"}
{"compound": "Cc1cc2cc(CN)[nH]c2cc1C(=O)NC1(c2cccc(Br)c2)CC1", "target": "UniProt:P0DTD1", "val": "5.30 to 6.00"}
{"compound": "Cc1cc2nc[nH]c2cc1C(=O)N[C@H](C)c1cccc(-c2ccc(CN3CCCC3)s2)c1", "target": "UniProt:P0DTD1", "val": "5.30 to 6.00"}
{"compound": "Cc1cc(C)c(C(=O)NC2(c3cccc4ccccc34)CC2)cc1OCCN(C)C", "target": "UniProt:P0DTD1", "val": "> 7.00"}
{"compound": "Cc1ccc(OCCCN)cc1C(=O)NC1(c2cccc3ccccc23)CC1", "target": "UniProt:P0DTD1", "val": "6.00 to 7.00"}
{"compound": "COc1cc(C2(NC(=O)c3cc(OCCN(C)C)ccc3C)CC2)c2ccccc2c1", "target": "UniProt:P0DTD1", "val": "> 7.00"}
{"compound": "Cc1ccc(CCC(N)=O)cc1C(=O)NC1(c2cccc3ccccc23)CC1", "target": "UniProt:P0DTD1", "val": "6.00 to 7.00"}
{"compound": "Cc1ccc(OCCN(C)C)c(F)c1C(=O)NC1(c2cccc3ccccc23)CC1", "target": "UniProt:P0DTD1", "val": "6.00 to 7.00"}

The origin of these recorded values is patent US20250025443A1.
